assay: physchem

# entry.smiles, chromatographic logP
rows = [
    ("CC(C)N(Sc1nc2ccccc2s1)C(C)(C)C", 5.1),
]

---

// chromatographic logP lookup, one value per entry
experiment: octanol/water partition coefficient (log P) by high-performance liquid chromatography, JIS Z 7260-117 (2006)

# entry.smiles, chromatographic logP
records = [
    ("CCN(Sc1nc2ccccc2s1)C(C)(C)C", 4.9),
    ("CN(Sc1nc2ccccc2s1)C(C)(C)C", 4.5),
    ("CCCN(Sc1nc2ccccc2s1)C(C)(C)C", 5.3),
    ("CCCCN(Sc1nc2ccccc2s1)C(C)(C)C", 5.8),
]

Origin of measurements: patent US20110118397A1
